Hey, just so you know, these numbers are from patent US20240376185A1.

biological target: tetanus neurotoxin (TeNT), authentic tetanus holotoxin (Clostridium tetani, UniProt P04958 2-1315); test: competition ELISA on TeNT, binder biotinylated; competitor SVT06L; also: test concentration or dose not given here
Sequence (P04958 2-457 limits assumed, chain 1 of 2): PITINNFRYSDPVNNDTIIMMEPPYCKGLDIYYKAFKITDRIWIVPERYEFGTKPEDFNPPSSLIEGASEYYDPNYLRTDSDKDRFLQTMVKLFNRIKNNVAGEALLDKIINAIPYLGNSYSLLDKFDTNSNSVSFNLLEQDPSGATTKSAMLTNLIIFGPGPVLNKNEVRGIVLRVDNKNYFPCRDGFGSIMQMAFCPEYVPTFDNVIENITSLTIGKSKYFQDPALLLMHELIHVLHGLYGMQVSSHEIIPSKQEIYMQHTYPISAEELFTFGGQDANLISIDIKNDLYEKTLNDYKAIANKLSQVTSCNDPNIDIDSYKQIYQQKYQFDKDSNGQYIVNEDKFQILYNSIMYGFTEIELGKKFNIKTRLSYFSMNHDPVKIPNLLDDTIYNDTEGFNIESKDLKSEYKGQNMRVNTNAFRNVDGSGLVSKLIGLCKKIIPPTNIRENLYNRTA
Sequence (P04958 458-1315 limits assumed, chain 2 of 2): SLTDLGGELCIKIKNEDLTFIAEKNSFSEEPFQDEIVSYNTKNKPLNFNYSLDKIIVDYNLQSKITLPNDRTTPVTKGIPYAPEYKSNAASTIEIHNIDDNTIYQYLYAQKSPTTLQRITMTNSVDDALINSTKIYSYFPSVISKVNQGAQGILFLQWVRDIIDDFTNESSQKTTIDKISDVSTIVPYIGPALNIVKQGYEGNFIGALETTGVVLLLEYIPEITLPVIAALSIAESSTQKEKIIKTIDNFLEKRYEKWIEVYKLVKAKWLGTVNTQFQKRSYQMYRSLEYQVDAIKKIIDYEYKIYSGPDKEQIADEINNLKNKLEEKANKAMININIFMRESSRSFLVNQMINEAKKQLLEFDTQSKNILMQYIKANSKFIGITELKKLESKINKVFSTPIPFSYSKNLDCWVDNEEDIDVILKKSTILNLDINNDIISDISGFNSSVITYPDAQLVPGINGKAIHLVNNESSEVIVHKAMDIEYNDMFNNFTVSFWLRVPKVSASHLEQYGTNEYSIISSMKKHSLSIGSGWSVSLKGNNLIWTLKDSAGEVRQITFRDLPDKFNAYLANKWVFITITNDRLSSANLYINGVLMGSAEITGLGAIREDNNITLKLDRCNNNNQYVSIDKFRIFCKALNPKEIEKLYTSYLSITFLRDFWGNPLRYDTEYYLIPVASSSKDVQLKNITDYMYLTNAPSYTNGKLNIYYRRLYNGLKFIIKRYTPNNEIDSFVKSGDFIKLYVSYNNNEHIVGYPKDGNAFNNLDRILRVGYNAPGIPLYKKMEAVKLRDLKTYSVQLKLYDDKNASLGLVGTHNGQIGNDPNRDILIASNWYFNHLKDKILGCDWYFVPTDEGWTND
Measured Property: % inhibition of binding (%)
Numeric only. Scale: %

Illustrative cases are given below, each with its answer.
{"Binder": "SVT13L (VHH) VHH: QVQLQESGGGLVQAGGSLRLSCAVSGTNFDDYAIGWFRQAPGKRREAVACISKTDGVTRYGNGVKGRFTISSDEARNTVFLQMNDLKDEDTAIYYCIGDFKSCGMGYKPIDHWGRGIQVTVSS", "% inhibition of binding (%)": 1}
{"Binder": "SVT22L (VHH) VHH: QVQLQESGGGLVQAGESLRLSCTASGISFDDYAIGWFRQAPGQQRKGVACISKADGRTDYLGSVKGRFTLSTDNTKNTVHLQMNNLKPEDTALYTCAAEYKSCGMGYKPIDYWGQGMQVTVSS", "% inhibition of binding (%)": 6}
{"Binder": "SVT03L (VHH) VHH: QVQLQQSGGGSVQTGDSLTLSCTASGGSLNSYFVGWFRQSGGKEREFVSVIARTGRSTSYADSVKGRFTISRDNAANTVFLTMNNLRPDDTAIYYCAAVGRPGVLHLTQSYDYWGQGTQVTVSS", "% inhibition of binding (%)": 10}
{"Binder": "SVT15L (VHH) VHH: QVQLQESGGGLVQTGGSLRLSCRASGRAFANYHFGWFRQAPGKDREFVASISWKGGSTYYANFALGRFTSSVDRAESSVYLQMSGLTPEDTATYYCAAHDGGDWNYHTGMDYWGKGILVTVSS", "% inhibition of binding (%)": 1}
{"Binder": "SVT08L (VHH) VHH: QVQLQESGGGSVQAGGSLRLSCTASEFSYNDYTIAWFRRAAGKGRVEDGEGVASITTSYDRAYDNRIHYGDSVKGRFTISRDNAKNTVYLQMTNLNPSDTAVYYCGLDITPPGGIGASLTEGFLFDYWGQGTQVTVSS", "% inhibition of binding (%)": 95}
{"Binder": "SVT16L (VHH) VHH: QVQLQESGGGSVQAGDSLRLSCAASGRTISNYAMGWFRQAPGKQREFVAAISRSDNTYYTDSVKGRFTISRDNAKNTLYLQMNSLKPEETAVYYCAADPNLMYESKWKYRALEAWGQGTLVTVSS", "% inhibition of binding (%)": -8}
{"Binder": "SVT15L-3FW4M (VHH) VHH: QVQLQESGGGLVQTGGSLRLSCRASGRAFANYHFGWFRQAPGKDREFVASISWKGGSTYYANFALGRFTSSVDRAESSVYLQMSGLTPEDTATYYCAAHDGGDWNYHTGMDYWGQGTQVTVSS", "% inhibition of binding (%)": 7}

Moving on to another binder below.
Recall and state the measured % inhibition of binding for SVT02L (VHH) VHH: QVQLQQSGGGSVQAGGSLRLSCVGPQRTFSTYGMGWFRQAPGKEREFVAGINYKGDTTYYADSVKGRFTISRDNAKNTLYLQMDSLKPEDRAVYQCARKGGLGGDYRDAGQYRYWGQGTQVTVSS .
2
